# TESTED_TARGET: T1, cynomolgus ILT7 (cynomolgus, UniProt P59901 24-499 (human entry))
# T1 construct: also called cyno ILT7; cynomolgus monkey ILT7
# T1 sequence (P59901 other isoform, or with tags, fused parts or gaps limits assumed): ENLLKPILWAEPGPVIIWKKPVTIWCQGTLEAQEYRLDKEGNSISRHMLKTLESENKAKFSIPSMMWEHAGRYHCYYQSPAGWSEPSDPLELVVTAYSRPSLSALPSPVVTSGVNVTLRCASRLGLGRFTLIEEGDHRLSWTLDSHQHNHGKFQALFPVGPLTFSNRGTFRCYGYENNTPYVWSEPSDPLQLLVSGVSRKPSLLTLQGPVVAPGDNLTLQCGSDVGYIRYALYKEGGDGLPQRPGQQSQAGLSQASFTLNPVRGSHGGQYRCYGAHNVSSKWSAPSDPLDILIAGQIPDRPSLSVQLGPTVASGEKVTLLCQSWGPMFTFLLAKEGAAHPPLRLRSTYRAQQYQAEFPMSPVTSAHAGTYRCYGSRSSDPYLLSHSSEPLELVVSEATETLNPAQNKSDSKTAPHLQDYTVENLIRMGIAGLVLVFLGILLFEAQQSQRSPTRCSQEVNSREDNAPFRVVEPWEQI
# EXPERIMENT_SUMMARY: flow cytometry on CynoILT7 CT-125 cells (cynomolgus ILT7), bottom panel, table 'Ec50 (pM)'
QUANTITY_MEASURED: EC50 (nM)
Numbers only, in nM.

Exercise: Annotate the binder ILT70080.5 (antibody, V domains shown, Engineered (germlined) variant of ILT70080, tested as IgG1) VH: QVQLVQSGAEVKKPGSSVKVSCKASGDSFRNYAVSWVRQAPGQGLEWMGAMMPSFGTREHSQQFQGRVTLTADESTSTAYMELSSLRSEDTAVYYCAGSRDYNAYHFWTGPPDFWGRGTLVTVSS VL: SYVLTQPPSVSVAPGKTARITCGGDSVGSTSVHWYQQKPGQAPVMVMFYNSDRPSGIPERFSGSNSGNTATLTISRVEAGDEADYYCQVWDTSSDHPEFGGGTKLTVL with its measured EC50.
Key: 0.612

Measured values drawn from patent US20220144940A1 for this set.
